assay: Selectivity index, ratio of CC50 for cytotoxicity against human HeLa CCL2 cells to EC50 for antiviral activity against CHIKV 122508 infected in human HeLa CCL2 cells; type: toxicity, cell-based; settings: read-out: Ratio CC50/EC50
# label = bin(measured selectivity ratio), where bins are low: < 20; middle: ≥ 20 and < 80; high: ≥ 80

>>> label_value("C=C1CC[C@H]2C(C)(C)CCC[C@]2(C)[C@H]1C/C=C1\\C(=O)Nc2cccc(Br)c21")
"middle"
>>> label_value("CC1=CC[C@H]2C(C)(C)CCC[C@]2(C)[C@H]1C/C=C1\\C(=O)Nc2c(Cl)cccc21")
"middle"
>>> label_value("C=C1[C@H](O)C[C@H]2C(C)(C)CCC[C@]2(C)[C@H]1C/C=C1/C(=O)Nc2ccccc21")
"low"
>>> label_value("C=C1CC[C@H]2C(C)(C)CCC[C@]2(C)[C@H]1C/C=C1\\C(=O)Nc2ccc(Br)cc21")
"low"
>>> label_value("C=C1CC[C@H]2C(C)(C)CCC[C@]2(C)[C@H]1C/C=C1/C(=O)Nc2c(Cl)cc(F)cc21")
"high"
>>> label_value("C=C1CC[C@H]2C(C)(C)CCC[C@]2(C)[C@H]1C/C=C1/C(=O)Nc2cc(C(F)(F)F)ccc21")
"low"
>>> label_value("C=C1[C@H](O)C[C@H]2C(C)(C)CCC[C@]2(C)[C@H]1C/C=C1/C(=O)Nc2c(Cl)cccc21")
"high"
>>> label_value("C=C1CC[C@H]2C(C)(C)CCC[C@]2(C)[C@H]1C/C=C1/C(=O)Nc2c(C)cccc21")
"high"
>>> label_value("C=C1CC[C@H]2C(C)(C)CCC[C@]2(C)[C@H]1C/C=C1/C(=O)Nc2ccc(Cl)cc21")
"middle"
>>> label_value("C=C1CC[C@H]2C(C)(C)CCC[C@]2(C)[C@H]1C/C=C1\\C(=O)Nc2c(Br)cccc21")
"high"
>>> label_value("C=C1CC[C@H]2C(C)(C)CCC[C@]2(C)[C@H]1C/C=C1/C(=O)Nc2c(Cl)cccc21")
"high"
